system under test: T1, thermostable variant of Streptomyces mobaraensis transglutaminase (Streptomyces mobaraensis, UniProt P81453 79-407)
T1 sequence: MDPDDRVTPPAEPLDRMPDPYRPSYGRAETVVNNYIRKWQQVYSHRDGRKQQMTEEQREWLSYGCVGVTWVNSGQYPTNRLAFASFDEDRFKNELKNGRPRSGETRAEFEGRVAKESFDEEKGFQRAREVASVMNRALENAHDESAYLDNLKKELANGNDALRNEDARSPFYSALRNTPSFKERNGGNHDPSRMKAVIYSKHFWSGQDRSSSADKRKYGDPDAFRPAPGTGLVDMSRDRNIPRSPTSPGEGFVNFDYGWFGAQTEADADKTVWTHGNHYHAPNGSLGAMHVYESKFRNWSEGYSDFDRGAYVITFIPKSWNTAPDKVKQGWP
experimental protocol: cell-based or functional assay
Below, each entry is listed with its recorded Improvement in pH responsiveness of inhibitory peptide relative to WT.
parameter: Improvement in pH responsiveness of inhibitory peptide relative to WT

>>> recorded_result("MDNGAGEETKSYAETYRVTADDVANINALNESAPAASSAGPSFRAP [pro-peptide variant L18V]")
"> 1.2 fold"
>>> recorded_result("MDNGAGEETKSYAETYRLTADDVANINALNESAPAASSAGPSFRAM [pro-peptide variant P46M]")
"> 1.2 fold"
>>> recorded_result("MDNGAGEETKSNAETYRLTADDVANINALNESAPAASSAGPSFRAP [pro-peptide variant Y12N]")
"> 1.2 fold"
